Values from PubChem BioAssay (NCI)

protocol_notes: NCI Yeast Anticancer Drug Screen. Data for the rad50 strain (AID 155)
conditions: S. cerevisiae rad50 strain growth inhibition; at 50.0 µM
This is part of a sample that, as a whole, favours compounds with a hit. Of some 79,000 tested, about 15% had one in any assay. The source made the active and inactive calls. Cut-off read from the data, not from the text of the source: active = growth inhibition above about 70%; inactive = the rest.
Would you mind answering with one of these outcomes? active, inactive

Sample answers from the record:
compound=O=C1/C(=C/c2ccc([N+](=O)[O-])cc2)CNC/C1=C\c1ccc([N+](=O)[O-])cc1 assigned_label=active
compound=CCO/C=C1\N=C(C(O)(c2ccc(Cl)cc2)c2ccc(Cl)cc2)OC1=O assigned_label=inactive
compound="C/C(=N/NC(N)=S)C(CN1CCOCC1)C(C1=C(O)c2ccccc2OC1)c1ccccc1 (stereo not given)" assigned_label=active
compound=O=C1C(=O)c2ccccc2C(O)=C1C(c1ccccc1)c1ccccc1 assigned_label=inactive

Q. What is the recorded call for this compound in the test? C1=C([P+](c2ccccc2)(c2ccccc2)c2ccccc2)CCCC1
A. active

Q. What is the recorded call for this compound in the test? COc1ccccc1NC(=O)C1=C(C)NC(C)=C(C(=O)Nc2ccccc2OC)C1c1ccccc1[N+](=O)[O-]
A. inactive

Q. What is the recorded call for this compound in the test? O=C1C(c2ccc(Br)cc2)=[N+]([O-])c2ccccc21
A. active

Q. What is the recorded call for this compound in the test? CCS(=O)(=O)c1ccc(NC(=O)OC2CCCCCCC2)cc1
A. active

Q. What is the recorded call for this compound in the test? COC(=O)c1cc(-c2ccc([N+](=O)[O-])cc2)c2c(=O)n(-c3ccccc3)[nH]c2n1
A. active

Q. What is the recorded call for this compound in the test? O=C1C=C(O)c2cc(Br)ccc2C1=O.[Ag]
A. active
